test: Turbidity with thermal stress of 37° C. (absorbance at 350 nm); assay type: physicochemical; details: thermal stress of 37° C., serum free medium
MEASUREMENT NAME: stability (turbidity) in serum free medium

{"MOLECULE": "aMTD830-P2-1B: SEQ ID No. 255; aMTD830-replaced P2-1B, SH2 (L69-Q96) and SDB (protein, Amino acid Sequence of aMTD830-P2-1B, aMTD830-replaced P2-1B, SH2 (L69-Q96) and SDB) IALVAAPVALVPEAAAKLIRDSSDQRHFFTLSVKTQSGTKNLRIQEAAAKEAAAKEAAAKMAEQSDKDVKYYTLEEIQKHKDSKSTWLILHHKVYDLTKFLEEHPGGEEVLGEQAGGDATENFEDVGHSTDARELSKTYIIGELHPDDRSKIAKPSETL", "VALUE": "stable"}
{"MOLECULE": "aMTD830-P2-1-32B: SEQ ID No. 266; aMTD830-replaced P2-1-32B (protein, Amino acid Sequence of aMTD830-P2-1-32B, aMTD830-replaced P2-1-32B) IALVAAPVALVPEAAAKLIRDSSDQRHFFTLSVKTQSGTKNLRIQGGGGSGGGGSGGGGSGGGGSAYYIYSGGEKIPLVLSRPLSSNEAAAKEAAAKEAAAKMAEQSDKDVKYYTLEEIQKHKDSKSTWLILHHKVYDLTKFLEEHPGGEEVLGEQAGGDATENFEDVGHSTDARELSKTYIIGELHPDDRSKIAKPSETL", "VALUE": "stable"}
{"MOLECULE": "aMTD830-P2-1-24B: SEQ ID No. 261; aMTD830-replaced P2-1-24B (protein, Amino acid Sequence of aMTD830-P2-1-24B, aMTD830-replaced P2-1-24B) IALVAAPVALVPEAAAKLIRDSSDQRHFFTLSVKTQSGTKNLRIQGGGGSGGGGSGGGGSGGGGSHHYMGSGSGSGSAYYIYSGGEKIPLVLSRPLSSNEAAAKEAAAKEAAAKMAEQSDKDVKYYTLEEIQKHKDSKSTWLILHHKVYDLTKFLEEHPGGEEVLGEQAGGDATENFEDVGHSTDARELSKTYIIGELHPDDRSKIAKPSETL", "VALUE": "stable"}
